# association response of the second antibody listing for each entry below
Target: T1, PDLoneECDHisCtag (human, UniProt Q9NZQ7 19-238)
T1 construct: Expressed in HEK-293F cells; theoretical molecular weight 29 kDa; also called recombinant human PD-L1 ECD; human PD-L1 (BLI); not shown: C-terminal His-tag; C-tag
T1 sequence (Q9NZQ7 19-238, form in doubt): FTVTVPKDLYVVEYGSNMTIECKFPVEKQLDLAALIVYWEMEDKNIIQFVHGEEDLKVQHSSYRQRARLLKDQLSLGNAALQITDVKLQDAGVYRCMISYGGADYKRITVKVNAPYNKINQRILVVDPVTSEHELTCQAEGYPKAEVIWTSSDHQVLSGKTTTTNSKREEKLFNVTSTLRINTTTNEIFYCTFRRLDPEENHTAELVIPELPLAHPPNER
Test: BLI cross-block, second antibody on PDLoneECDHisCtag held by immobilised 421-LC91S; bold = blocking
The figure you give is taken to be in nm; do not add the unit.

In the examples that follow, each entry is paired with its recorded association response of the second antibody.
binder: IgG1-547-FEAR (antibody, V domains shown) VH: EVQLLEPGGGLVQPGGSLRLSCEASGSTFSTYAMSWVRQAPGKGLEWVSGFSGSGGFTFYADSVRGRFTISRDSSKNTLFLQMSSLRAEDTAVYYCAIPARGYNYGSFQHWGQGTLVTVSS VL: SYVLTQPPSVSVAPGQTARITCGGNNIGSKSVHWYQQKPGQAPVLVVYDDNDRPSGLPERFSGSNSGNTATLTISRVEAGDEADYYCQVWDSSSDHVVFGGGTKLTVLG
numeric.result: 0
//
binder: IgG1-321-FEAR (antibody, V domains shown) VH: EVQLVESGGGLVQPGGSLRLSCAASGFTFSSYWMSWVRQAPGKGLEWVANIKQDGNEKYYVDSVKGRFTISRDNAKNSLYVQMNSLRAEDTAVYYCARDLYYGSGTYPPFDYWGQGTLVTVSS VL: DIQMTQSPSTLSASVGDRVTITCRASQSISSWLAWYLQKPGKAPKLLIYKASSLESGVPSRFSGSGSGTEFTLTISSLQPDDFATYYCQQYHSSSYTFGQGTKLEIK
numeric.result: -0.1
//
binder: IgG1-516-FEAR (antibody, V domains shown) VH: QVQLQESGPGLVKPSDTLSLTCAVSDYSISSNDWWGWIRQPPGKGLEWIGYIYYSGTGYYNPSLKSRVTISIDTSKNQFSLKLNSVTAVDTAVYYCARTRVGARRAFDYWGQGTLVTVSS VL: SYVLTQPPSVSVAPGQTARITCGGNNIGSKSVHWYQQKPGQAPVLVVYDDSDRPSGIPERFSGSNSGNTATLTISRVEAGDEADYYCQVWDSSSDHVVFGGGTKLTVL
numeric.result: 0

We now examine a further binder.
Query string: Given IgG1-338-FEAR (antibody, V domains shown) VH: EVQVVESGGGLVQPGGSLRLSCAASGFTFSRFWMSWVRQAPGKGLEWVANIKQDGGEKYYVDSVKGRFTISRDNAKNSLYLQMNSLRGEDTAVYYCARDDNWNGHFDYWGQGTLVTVSS VL: DIQMTQSPSTLSASVGDRVTITCRASQSISSWLAWYQQKPGKAPNLLIYKASSLESGVPSRFSGSGSGTEFTLTISSLQPDDFATYYCQQYYGSYITFGQGTRLEIKR , state its recorded association response of the second antibody.
Result string: -0.1

FYI, the data here is from patent US20200239579A1.
